Biological target: δ-opioid receptor (Homo sapiens, UniProt P41143)
Sequence (P41143 whole entry): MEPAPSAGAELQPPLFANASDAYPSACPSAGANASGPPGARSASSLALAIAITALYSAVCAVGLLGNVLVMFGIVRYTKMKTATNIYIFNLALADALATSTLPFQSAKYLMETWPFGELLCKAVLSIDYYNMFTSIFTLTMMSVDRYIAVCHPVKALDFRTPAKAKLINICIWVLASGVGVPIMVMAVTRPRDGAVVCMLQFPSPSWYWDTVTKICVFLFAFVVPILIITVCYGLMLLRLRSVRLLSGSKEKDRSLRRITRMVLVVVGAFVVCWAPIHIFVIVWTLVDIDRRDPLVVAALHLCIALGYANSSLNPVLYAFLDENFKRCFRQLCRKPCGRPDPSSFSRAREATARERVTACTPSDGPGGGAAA
Test: Opioid receptor binding assay, [3H][Ile5,6]deltorphin-2 competition
Conditions: CHO cell membranes, 0.5 nM [3H][Ile5,6]deltorphin-2, 25 °C, 120 min; mean ± SEM of four experiments in duplicate; read-out: Ki DOR
Square brackets hold non-standard residues; d marks the D form. Peptide text beside a SMILES is read from it. Dmt = Cc1cc(O)cc(C)c1C[C@H](N)C(=O)O
measurement-type: Ki (nM)
# value in nM; strip the unit string

-- ask Query for δ-opioid receptor (Homo sapiens, UniProt P41143): what Ki does the record show for Cc1cc(O)cc(C)c1C[C@H](N)C(=O)N1CCC[C@H]1C(=O)N[C@@H](CC(C)C)C(=O)N[C@@H](CC(=O)O)C(=O)N[C@@H](CC(C)C)C(=O)N[C@@H](Cc1ccccc1)C(=O)O [analog 1, Dmt-Pro-Leu-Asp-Leu-Phe-OH] (H-[Dmt]PLDLF-OH) ?
-- reply 91.7

Values compiled from paper PMC10901950.
